Sourced from paper PMC11785640

# System: BChE (Equus caballus, UniProt P81908)
# Sequence (P81908 whole entry): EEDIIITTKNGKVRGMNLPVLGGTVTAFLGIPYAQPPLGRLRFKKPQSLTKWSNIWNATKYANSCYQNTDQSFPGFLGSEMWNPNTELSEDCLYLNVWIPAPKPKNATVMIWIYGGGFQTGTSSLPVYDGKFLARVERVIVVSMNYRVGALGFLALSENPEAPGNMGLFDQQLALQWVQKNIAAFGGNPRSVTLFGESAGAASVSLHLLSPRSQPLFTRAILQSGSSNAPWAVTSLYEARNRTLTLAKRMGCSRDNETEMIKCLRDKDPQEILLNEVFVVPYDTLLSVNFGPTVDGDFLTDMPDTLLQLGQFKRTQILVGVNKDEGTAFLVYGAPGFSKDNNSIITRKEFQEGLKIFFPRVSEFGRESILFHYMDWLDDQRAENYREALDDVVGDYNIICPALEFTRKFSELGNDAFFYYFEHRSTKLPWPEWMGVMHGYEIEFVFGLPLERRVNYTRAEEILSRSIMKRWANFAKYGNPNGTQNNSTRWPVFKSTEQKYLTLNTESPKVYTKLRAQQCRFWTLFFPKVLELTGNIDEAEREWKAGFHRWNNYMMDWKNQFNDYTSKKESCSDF
# Protocol Summary: biochemical
# Format: biochemical
# Measurement Setup: from Lineweaver-Burk graphs; mean ± SD, triplicate
Reported Ki is given for each of the following compounds.
Metric: Ki (nM)

O=C(c1ccc2nc(-c3ccccc3)oc2c1)N1CCOCC1 [Compound 12]
32.3
O=C(c1ccc2nc(-c3ccccc3)oc2c1)N1CCCCC1 [Compound 11]
74.4
CCN(CC)C(=O)c1ccc2nc(-c3ccccc3)oc2c1 [Compound 8]
77
O=C(c1ccc2nc(-c3ccncc3)oc2c1)N1CCCCC1 [Compound 29]
47.9
O=C(c1ccc2nc(-c3ccc[nH]3)oc2c1)N1CCCCC1 [Compound 35]
44.5

###

# System: AChE (Electrophorus electricus, UniProt O42275)
# Sequence (O42275 24-633): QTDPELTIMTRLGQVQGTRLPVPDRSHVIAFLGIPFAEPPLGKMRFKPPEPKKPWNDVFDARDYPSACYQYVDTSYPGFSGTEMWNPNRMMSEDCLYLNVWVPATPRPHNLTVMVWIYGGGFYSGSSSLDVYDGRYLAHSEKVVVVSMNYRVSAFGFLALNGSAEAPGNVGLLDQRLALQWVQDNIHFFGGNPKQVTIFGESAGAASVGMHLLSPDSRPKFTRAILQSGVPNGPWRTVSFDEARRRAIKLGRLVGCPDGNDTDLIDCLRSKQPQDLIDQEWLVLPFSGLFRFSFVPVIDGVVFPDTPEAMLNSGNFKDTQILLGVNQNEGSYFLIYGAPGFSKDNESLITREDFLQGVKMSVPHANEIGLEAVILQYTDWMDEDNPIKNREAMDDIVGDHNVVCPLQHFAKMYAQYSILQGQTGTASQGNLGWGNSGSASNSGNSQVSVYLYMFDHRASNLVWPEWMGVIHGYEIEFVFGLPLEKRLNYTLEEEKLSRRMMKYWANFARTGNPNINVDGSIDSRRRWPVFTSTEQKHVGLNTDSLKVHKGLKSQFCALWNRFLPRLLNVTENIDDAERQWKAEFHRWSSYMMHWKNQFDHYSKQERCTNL
# Protocol Summary: biochemical
# Type: biochemical
# Measurement Setup: from Lineweaver-Burk graphs; mean ± SD, triplicate
Metric: Ki (nM)

O=C(c1ccc2nc(-c3ccco3)oc2c1)N1CCOCC1
14.6
O=C(c1ccc2nc(-c3cccs3)oc2c1)N1CCCCC1
22.3
CCN(CC)C(=O)c1ccc2nc(-c3ccc[nH]3)oc2c1
47.5
CN(C)C(=O)c1ccc2nc(-c3cccs3)oc2c1
19.9
O=C(c1ccc2nc(-c3cccc4ccccc34)oc2c1)N1CCCC1
41.9
CCCN(CCC)C(=O)c1ccc2nc(-c3ccc[nH]3)oc2c1
26.1
CN(C)C(=O)c1ccc2nc(-c3ccc(-c4ccccc4)cc3)oc2c1
29.8
CCN(CC)C(=O)c1ccc2nc(-c3cccc4ccccc34)oc2c1
48.5
O=C(c1ccc2nc(-c3ccc(-c4ccccc4)cc3)oc2c1)N1CCCCC1
18.4
CCN(CC)C(=O)c1ccc2nc(-c3ccccc3)oc2c1
30.6
CN(C)C(=O)c1ccc2nc(-c3ccc[nH]3)oc2c1
30.7
O=C(c1ccc2nc(-c3ccncc3)oc2c1)N1CCCC1
47.9
CCCN(CCC)C(=O)c1ccc2nc(-c3cccc4ccccc34)oc2c1
71.6
CN(C)C(=O)c1ccc2nc(-c3ccco3)oc2c1
45.7
O=C(c1ccc2nc(-c3cccs3)oc2c1)N1CCOCC1
10.6
CCN(CC)C(=O)c1ccc2nc(-c3ccco3)oc2c1
41.2
O=C(c1ccc2nc(-c3ccc[nH]3)oc2c1)N1CCCCC1
12.3
O=C(c1ccc2nc(-c3ccco3)oc2c1)N1CCCC1
34.9
CN(C)C(=O)c1ccc2nc(-c3cccc4ccccc34)oc2c1
38.8
O=C(c1ccc2nc(-c3cccc4ccccc34)oc2c1)N1CCOCC1
45.7

###

# System: AChE (Electrophorus electricus)
# Protocol Summary: biochemical
# Format: biochemical
# Measurement Setup: from Lineweaver-Burk graphs; mean ± SD, triplicate
Kindly apply the following: MET if Ki is less than 30 nM, NOT MET in every other case.

O=C(c1ccc2nc(-c3ccc(-c4ccccc4)cc3)oc2c1)N1CCCC1
MET
CN(C)C(=O)c1ccc2nc(-c3ccccc3)oc2c1
MET
CCCN(CCC)C(=O)c1ccc2nc(-c3ccc(-c4ccccc4)cc3)oc2c1
NOT MET
O=C(c1ccc2nc(-c3ccccc3)oc2c1)N1CCOCC1
MET
CCN(CC)C(=O)c1ccc2nc(-c3ccncc3)oc2c1
NOT MET
O=C(c1ccc2nc(-c3ccncc3)oc2c1)N1CCOCC1
MET
O=C(c1ccc2nc(-c3ccc[nH]3)oc2c1)N1CCOCC1
MET
CCCN(CCC)C(=O)c1ccc2nc(-c3ccccc3)oc2c1
NOT MET
CCCN(CCC)C(=O)c1ccc2nc(-c3cccs3)oc2c1
MET

###

# System: AChE (Electrophorus electricus)
# Protocol Summary: biochemical
# Type: biochemical
# Measurement Setup: ratio AChE/BChE
Metric: Selectivity index (AChE/BChE)

CCCN(CCC)C(=O)c1ccc2nc(-c3ccc[nH]3)oc2c1
0.68
O=C(c1ccc2nc(-c3cccc4ccccc34)oc2c1)N1CCCC1
0.58
CN(C)C(=O)c1ccc2nc(-c3cccc4ccccc34)oc2c1
0.32
CCN(CC)C(=O)c1ccc2nc(-c3ccccc3)oc2c1
0.40
CN(C)C(=O)c1ccc2nc(-c3ccc[nH]3)oc2c1
0.73
O=C(c1ccc2nc(-c3ccc[nH]3)oc2c1)N1CCOCC1
0.38
CN(C)C(=O)c1ccc2nc(-c3cccs3)oc2c1
0.17
O=C(c1ccc2nc(-c3ccc(-c4ccccc4)cc3)oc2c1)N1CCCC1
0.32
O=C(c1ccc2nc(-c3ccc(-c4ccccc4)cc3)oc2c1)N1CCOCC1
0.37
CCCN(CCC)C(=O)c1ccc2nc(-c3cccs3)oc2c1
0.30
CN(C)C(=O)c1ccc2nc(-c3ccc(-c4ccccc4)cc3)oc2c1
0.46
CCCN(CCC)C(=O)c1ccc2nc(-c3ccc(-c4ccccc4)cc3)oc2c1
0.40
CCCN(CCC)C(=O)c1ccc2nc(-c3ccccc3)oc2c1
0.53
O=C(c1ccc2nc(-c3cccs3)oc2c1)N1CCCCC1
0.48
O=C(c1ccc2nc(-c3ccncc3)oc2c1)N1CCCC1
0.91
O=C(c1ccc2nc(-c3ccco3)oc2c1)N1CCOCC1
0.30
CCN(CC)C(=O)c1ccc2nc(-c3ccco3)oc2c1
0.69
O=C(c1ccc2nc(-c3cccs3)oc2c1)N1CCCC1
0.33
CCN(CC)C(=O)c1ccc2nc(-c3cccs3)oc2c1
0.27
O=C(c1ccc2nc(-c3cccc4ccccc34)oc2c1)N1CCOCC1
0.90

###

# System: AChE (Electrophorus electricus, UniProt O42275)
# Protocol Summary: biochemical
# Assay type: biochemical
Metric: IC50 (nM)

O=C(c1ccc2nc(-c3ccccc3)oc2c1)N1CCOCC1 [Compound 12]
29.6
O=C(c1ccc2nc(-c3ccco3)oc2c1)N1CCCC1 [Compound 40]
52.1
O=C(c1ccc2nc(-c3ccc(-c4ccccc4)cc3)oc2c1)N1CCCC1 [Compound 16]
26.3

###

Reported Selectivity index (AChE/BChE) is given for each of the following compounds.
# System: AChE (Electrophorus electricus)
# Protocol Summary: biochemical
# Format: biochemical
# Measurement Setup: ratio AChE/BChE
Metric: Selectivity index (AChE/BChE)

O=C(c1ccc2nc(-c3ccc[nH]3)oc2c1)N1CCCC1
0.32
CCN(CC)C(=O)c1ccc2nc(-c3ccc[nH]3)oc2c1
2.07
CCCN(CCC)C(=O)c1ccc2nc(-c3ccncc3)oc2c1
0.72
CCN(CC)C(=O)c1ccc2nc(-c3ccc(-c4ccccc4)cc3)oc2c1
0.26
CN(C)C(=O)c1ccc2nc(-c3ccccc3)oc2c1
0.45
O=C(c1ccc2nc(-c3ccco3)oc2c1)N1CCCC1
0.36

###

# System: BChE (Equus caballus, UniProt P81908)
# Protocol Summary: biochemical
# Format: biochemical
# Measurement Setup: from Lineweaver-Burk graphs; mean ± SD, triplicate
Metric: Ki

CN(C)C(=O)c1ccc2nc(-c3ccccc3)oc2c1 [Compound 7]
50.7 nM
CCN(CC)C(=O)c1ccc2nc(-c3cccs3)oc2c1 [Compound 44]
61 nM
CCCN(CCC)C(=O)c1ccc2nc(-c3ccccc3)oc2c1 [Compound 9]
111 nM
O=C(c1ccc2nc(-c3cccc4ccccc34)oc2c1)N1CCOCC1 [Compound 24]
50.7 nM
O=C(c1ccc2nc(-c3ccc(-c4ccccc4)cc3)oc2c1)N1CCCCC1 [Compound 17]
49.2 nM
O=C(c1ccc2nc(-c3cccs3)oc2c1)N1CCCC1 [Compound 46]
87.5 nM
CCCN(CCC)C(=O)c1ccc2nc(-c3cccs3)oc2c1 [Compound 45]
72.5 nM
O=C(c1ccc2nc(-c3ccc(-c4ccccc4)cc3)oc2c1)N1CCCC1 [Compound 16]
84 nM
O=C(c1ccc2nc(-c3ccco3)oc2c1)N1CCCCC1 [Compound 41]
75.5 nM
O=C(c1ccc2nc(-c3ccco3)oc2c1)N1CCOCC1 [Compound 42]
48.6 nM
CCCN(CCC)C(=O)c1ccc2nc(-c3ccc(-c4ccccc4)cc3)oc2c1 [Compound 15]
95.7 nM
O=C(c1ccc2nc(-c3cccs3)oc2c1)N1CCOCC1 [Compound 48]
22.7 nM

###

Reported IC50 is given for each of the following compounds.
# System: AChE (Electrophorus electricus)
# Protocol Summary: biochemical
# Format: biochemical
Metric: IC50 (nM)

O=C(c1ccc2nc(-c3cccs3)oc2c1)N1CCCCC1
24
CN(C)C(=O)c1ccc2nc(-c3cccs3)oc2c1
29.2
CCN(CC)C(=O)c1ccc2nc(-c3cccc4ccccc34)oc2c1
53.6
O=C(c1ccc2nc(-c3ccc[nH]3)oc2c1)N1CCOCC1
12.6
CCCN(CCC)C(=O)c1ccc2nc(-c3ccc[nH]3)oc2c1
40.2
CCCN(CCC)C(=O)c1ccc2nc(-c3ccncc3)oc2c1
49.5
O=C(c1ccc2nc(-c3cccc4ccccc34)oc2c1)N1CCCC1
43
CCCN(CCC)C(=O)c1ccc2nc(-c3ccc(-c4ccccc4)cc3)oc2c1
40.7
O=C(c1ccc2nc(-c3cccc4ccccc34)oc2c1)N1CCCCC1
24.6
